meta.source: PubChem BioAssay AID1963847

# Test system: 415267-285-R-J2-PDC complex spheroid viability;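 also: luminescence used as stand-in measure of viable cells; spheroids exposed to compounds for one week before readout; 100% = DMSO vehicle control viability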
# Experiment: Anticancer human tumor 415267-285-R-J2-PDC patient-derived breast carcinoma cell line growth inhibition [POLQ]; active = viability on the fitted dose curve at most 10% of control; inactive = the rest
# Test settings: second compound 0.316 µM; first compound 0.0316 µM
Pick one and only one: true (1) for active, false (0) for inactive

Reference set, count: 2
Compound	Assigned class
CC1COCCN1c1cc(C2(O)CC3CCC(C2)O3)c2cnn(-c3ccn[nH]3)c2n1 (stereo not drawn) + COC1C(OC(N)=O)C(O)C(Oc2ccc3c(O)c(NC(=O)c4ccc(O)c(CC=C(C)C)c4)c(=O)oc3c2C)OC1(C)C	false (0)
CCc1c2c(nc3ccc(O)cc13)-c1cc3c(c(=O)n1C2)COC(=O)[C@]3(O)CC + Nc1ccc(C#CCN(C(=O)Cc2ncc(C(F)(F)F)cc2C(F)(F)F)c2ccc(F)cc2)nn1	true (1)

From here, focus on the item given below.
Exercise: # outcome recorded in this test, key = Cn1ncnc1[C@H]1c2n[nH]c(=O)c3cc(F)cc(c23)N[C@@H]1c1ccc(F)cc1 + Cc1cccc(N(C)C(=O)C2C(O)CCN2c2nc(C)cc(C(F)(F)F)c2C#N)c1
Solution: false (0)
